assay_system: Adenosine receptor A3 (Homo sapiens) (UniProt P0DMS8)
method_notes: Displacement of [3H]MRE3008F20 from recombinant human A3 adenosine receptor expressed in CHO cells at 10 uM after 120 mins by scintillation counting
Type: cell-based
# binarize inhibition: threshold 1% inclusive, high side Yes, low side No

These recorded examples may help you get a feel for the data.
- compound_structure: "Nc1scc(CN2CCN(c3ccc(C(F)(F)F)cc3)CC2)c1C(=O)c1cccc(C(F)(F)F)c1"
  class: "No"
- compound_structure: "Nc1scc(CN2CCN(c3cccc(C(F)(F)F)c3)CC2)c1C(=O)c1ccc(Cl)cc1"
  class: "No"
- compound_structure: "Nc1scc(CN2CCN(c3ccc(F)c(Cl)c3)CC2)c1C(=O)c1ccc(Cl)cc1"
  class: "No"
- compound_structure: "Nc1scc(CN2CCN(c3cccc(F)c3)CC2)c1C(=O)c1cccc(C(F)(F)F)c1"
  class: "No"

# check: inhibition of Nc1scc(CN2CCN(c3ccccc3C(F)(F)F)CC2)c1C(=O)c1ccc(Cl)cc1 is greater than or equal to 1% No

Test whether the molecule Nc1scc(CN2CCC(c3ccc(Cl)cc3)CC2)c1C(=O)c1ccc(Cl)cc1 records inhibition of 1% or higher. Yes

Please tell me: is the molecule Nc1scc(CN2CCN(c3cc(F)ccc3F)CC2)c1C(=O)c1ccc(Cl)cc1 at or over 1% in terms of inhibition? Yes

###

The reader will find reported fold change (FC) values listed item by item below.
assay_system: UniProt P30542
Sequence (whole entry): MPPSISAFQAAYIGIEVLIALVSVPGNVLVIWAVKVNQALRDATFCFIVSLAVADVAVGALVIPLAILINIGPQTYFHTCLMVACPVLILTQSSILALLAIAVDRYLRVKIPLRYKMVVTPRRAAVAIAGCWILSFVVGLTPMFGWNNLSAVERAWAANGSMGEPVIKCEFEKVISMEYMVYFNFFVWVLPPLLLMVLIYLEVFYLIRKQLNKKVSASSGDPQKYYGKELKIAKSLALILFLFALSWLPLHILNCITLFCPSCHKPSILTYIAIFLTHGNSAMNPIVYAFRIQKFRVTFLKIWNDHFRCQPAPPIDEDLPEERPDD
method_notes: Binding affinity to recombinant human A1 adenosine receptor allosteric site expressed in CHO cells assessed as [3H]DPCPX Bmax shift at 10 uM after 90 mins relative to control
Type: cell-based
The answer should be a number; do not append a unit.

# annotated cases, reported fold change (FC) shown
- compound_structure: "Nc1scc(CN2CCN(c3cccc(Cl)c3)CC2)c1C(=O)c1ccc(Cl)cc1"
  value_reported: 1
- compound_structure: "Nc1scc(CN2CCN(c3c(F)cccc3F)CC2)c1C(=O)c1cccc(C(F)(F)F)c1"
  value_reported: 0.9
- compound_structure: "Nc1scc(CN2CCN(c3c(F)cc(F)cc3F)CC2)c1C(=O)c1ccc(Cl)cc1"
  value_reported: 1
- compound_structure: "Nc1scc(CN2CCN(c3ccc([N+](=O)[O-])cc3)CC2)c1C(=O)c1ccc(Cl)cc1"
  value_reported: 0.9
- compound_structure: "Nc1scc(CN2CCN(c3ccc(OC(F)(F)F)cc3)CC2)c1C(=O)c1ccc(Cl)cc1"
  value_reported: 1.1

Please report the measured fold change (FC) for Nc1scc(CN2CCN(CCCc3ccc(Cl)cc3)CC2)c1C(=O)c1ccc(Cl)cc1 tested on UniProt P30542. 0.9

Fetch value of fold change (FC) on UniProt P30542 for Nc1scc(CN2CCN(c3ccccc3Cl)CC2)c1C(=O)c1ccc(Cl)cc1 . 0.9

# assay system UniProt P30542: give fold change (FC) of Nc1scc(CN2CCN(c3cccnc3)CC2)c1C(=O)c1ccc(Cl)cc1 0.9

###

assay_system: Adenosine receptor A2a (Homo sapiens)
method_notes: Displacement of [3H]ZM241385 from recombinant human A2A adenosine receptor expressed in CHO cells at 10 uM after 60 mins by scintillation counting
Format: cell-based
outcome_measure: inhibition (%)
Give just the number in %; leave the unit off.

Examples with answers:
- compound_structure: "Nc1scc(CN2CCN(Cc3ccc(Cl)cc3)CC2)c1C(=O)c1ccc(Cl)cc1"
  unit_symbol: "%"
  inhibition: 1
- compound_structure: "Nc1scc(CN2CCN(C(=O)c3ccc(Cl)cc3)CC2)c1C(=O)c1ccc(Cl)cc1"
  unit_symbol: "%"
  inhibition: 0

Quickly give me recorded inhibition for Nc1scc(CN2CCN(c3ccc(F)c(F)c3)CC2)c1C(=O)c1ccc(Cl)cc1 0

Please indicate inhibition recorded for Nc1scc(CN2CCN(c3ccc(F)c(Cl)c3)CC2)c1C(=O)c1ccc(Cl)cc1 0

###

assay_system: Adenosine receptor A1 (Homo sapiens) (UniProt P30542)
method_notes: Allosteric enhancer activity at recombinant human A1 adenosine receptor expressed in CHO cells assessed as change in forskolin-induced cAMP production at 0.01 uM after 6 mins by radioimmunoassay
Assay type: functional, cell-based
outcome_measure: Activity (%)
Provide only the numeric value, understood in %.

# count of solved cases: 3
- compound_structure: "Nc1scc(CN2CCN(c3cccc(Cl)c3Cl)CC2)c1C(=O)c1ccc(Cl)cc1"
  outcome_measure: "Activity"
  value_reported: 1
- compound_structure: "Nc1scc(CN2CCN(c3c(Cl)cccc3Cl)CC2)c1C(=O)c1ccc(Cl)cc1"
  outcome_measure: "Activity"
  value_reported: 15
- compound_structure: "Nc1scc(CN2CCN(c3cccc(C(F)(F)F)c3)CC2)c1C(=O)c1ccc(Cl)cc1"
  outcome_measure: "Activity"
  value_reported: -8.2

Please supply the value of reported Activity for the item Nc1scc(CN2CCN(C(=O)c3ccc(Cl)cc3)CC2)c1C(=O)c1ccc(Cl)cc1 -6.2

Tell me its Activity given Nc1scc(CN2CCN(c3ccncc3)CC2)c1C(=O)c1ccc(Cl)cc1 as the entry. -4

###

In this section we review reported Activity values for a set of compounds.
assay_system: Adenosine receptor A1 (Homo sapiens) (UniProt P30542)
method_notes: Allosteric enhancer activity at recombinant human A1 adenosine receptor expressed in CHO cells assessed as change in forskolin-induced cAMP production at 0.01 uM after 6 mins by radioimmunoassay
Format: functional, cell-based
Only the number, expressed in %, is required.

Known Activity results, listed for orientation:
- compound_structure: "Nc1scc(CN2CCN(C3CCCC3)CC2)c1C(=O)c1ccc(Cl)cc1"
  outcome_measure: "Activity"
  value_reported: 9.1
- compound_structure: "Nc1scc(CN2CCN(c3ccc(F)cc3Cl)CC2)c1C(=O)c1ccc(Cl)cc1"
  outcome_measure: "Activity"
  value_reported: 6.1
- compound_structure: "Nc1scc(CN2CCN(c3ccc([N+](=O)[O-])cc3)CC2)c1C(=O)c1ccc(Cl)cc1"
  outcome_measure: "Activity"
  value_reported: -12
- compound_structure: "Nc1scc(CN2CCN(c3ccc(Cl)cc3F)CC2)c1C(=O)c1ccc(Cl)cc1"
  outcome_measure: "Activity"
  value_reported: -9.2
- compound_structure: "Nc1scc(CN2CCN(c3ccc(Cl)c(C(F)(F)F)c3)CC2)c1C(=O)c1ccc(Cl)cc1"
  outcome_measure: "Activity"
  value_reported: -2.5
- compound_structure: "Nc1scc(CN2CCN(C3CCCCCC3)CC2)c1C(=O)c1ccc(Cl)cc1"
  outcome_measure: "Activity"
  value_reported: 2.9
- compound_structure: "Nc1scc(CN2CCN(Cc3ccc(F)cc3)CC2)c1C(=O)c1ccc(Cl)cc1"
  outcome_measure: "Activity"
  value_reported: 2.2
- compound_structure: "Nc1scc(CN2CCN(c3c(F)cc(F)cc3F)CC2)c1C(=O)c1ccc(Cl)cc1"
  outcome_measure: "Activity"
  value_reported: 4.2

Dear colleague, please send me the reported Activity for Nc1scc(CN2CCN(c3cc(Cl)ccc3Cl)CC2)c1C(=O)c1ccc(Cl)cc1 when you can. 13

Indicate the recorded Activity value for this compound: Nc1scc(CN2CCN(c3ccccc3F)CC2)c1C(=O)c1ccc(Cl)cc1 2.1

Please supply the value of reported Activity for the item Nc1scc(CN2CCN(c3c(F)cccc3F)CC2)c1C(=O)c1ccc(Cl)cc1 -12

Could you please provide reported Activity for Nc1scc(CN2CCN(c3ccc(C(F)(F)F)cc3)CC2)c1C(=O)c1cccc(C(F)(F)F)c1 ? Thanks! -12

Find the measured Activity of Nc1scc(CN2CCN(c3ccc(Cl)c(Cl)c3)CC2)c1C(=O)c1ccc(Cl)cc1 and report it. -1.2

###

The following compounds are listed with their measured inhibition values.
assay_system: Adenosine receptor A3 (Homo sapiens)
Sequence (whole entry): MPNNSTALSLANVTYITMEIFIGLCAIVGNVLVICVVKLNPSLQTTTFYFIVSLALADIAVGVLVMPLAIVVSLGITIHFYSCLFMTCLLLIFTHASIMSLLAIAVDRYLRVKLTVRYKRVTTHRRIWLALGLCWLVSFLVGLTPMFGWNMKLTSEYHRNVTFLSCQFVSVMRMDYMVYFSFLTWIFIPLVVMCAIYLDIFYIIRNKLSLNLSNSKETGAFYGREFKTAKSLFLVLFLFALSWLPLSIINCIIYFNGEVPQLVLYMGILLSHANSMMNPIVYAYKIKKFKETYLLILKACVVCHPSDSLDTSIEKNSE
method_notes: Displacement of [3H]MRE3008F20 from recombinant human A3 adenosine receptor expressed in CHO cells at 10 uM after 120 mins by scintillation counting
Format: cell-based
Kindly answer with a numeric value in %, unit omitted.

Some compounds with known inhibition results, for comparison:
- compound_structure: "Nc1scc(CN2CCN(C3CCCCCC3)CC2)c1C(=O)c1ccc(Cl)cc1"
  inhibition, %: 0
- compound_structure: "Nc1scc(CN2CCN(Cc3ccc(F)cc3)CC2)c1C(=O)c1ccc(Cl)cc1"
  inhibition, %: 1

Continue with the next compound.
Answer briefly: inhibition recorded on Adenosine receptor A3 (Homo sapiens) for Nc1scc(CN2CCN(c3ccc([N+](=O)[O-])cc3)CC2)c1C(=O)c1ccc(Cl)cc1 2
